Reported half-life at 1 µM is given for each of the following compounds.
Assay: in vitro
Settings: male, Sprague-Dawley, rat, pooled cryopreserved rat hepatocytes, pH 7.4
measured.quantity: half-life at 1 µM (h)

C[C@H]1CN(C)CCN1c1ncc(F)c(N2CC(C(=O)N(C)C(C)(C)c3cnc4ccccn34)C2)n1    0.967
Cc1ccc2ncc(C(C)(C)NC(=O)C3CN(c4nc(N5CCN(C)CC5)ncc4F)C3)n2c1    2.41
C[C@@H]1CN(c2ncc(Cl)c(N3CC(C(=O)NC(C)(C)c4cnc5ccccn45)C3)n2)CCN1C    2.05
CN1CCN(c2ncc(F)c(N3CC(C)(C(=O)NC(C)(C)c4cnc5ccccn45)C3)n2)CC1    2.41

====

Target: Plasmodium vivax (Pv) NMT (Plasmodium vivax (strain Salvador I), UniProt A5K1A2)
Sequence (A5K1A2 1-410): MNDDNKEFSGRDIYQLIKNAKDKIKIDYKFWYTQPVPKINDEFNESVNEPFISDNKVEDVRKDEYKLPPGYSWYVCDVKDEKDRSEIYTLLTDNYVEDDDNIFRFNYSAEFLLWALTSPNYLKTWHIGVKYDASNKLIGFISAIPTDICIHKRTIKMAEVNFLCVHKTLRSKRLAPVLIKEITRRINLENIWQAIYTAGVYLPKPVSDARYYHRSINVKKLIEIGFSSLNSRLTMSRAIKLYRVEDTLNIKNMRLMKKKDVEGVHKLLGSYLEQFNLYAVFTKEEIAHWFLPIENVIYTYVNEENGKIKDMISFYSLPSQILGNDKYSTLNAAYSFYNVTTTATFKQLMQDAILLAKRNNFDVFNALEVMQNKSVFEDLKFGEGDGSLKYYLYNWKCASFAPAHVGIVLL
Assay: biochemical
measured.quantity: IC50 (nM)

CN1CCN(c2ncc(F)c(N3CCC(C(=O)NC(C)(C)c4cnc5ccccn45)C3)n2)CC1 (centres unmarked) [Example 64]    20
C[C@H]1CN(c2ncc(Cl)c(N3CC(C(=O)NC(C)(C)c4cnc5ccccn45)C3)n2)CCN1 [Example 37]    8.4
C[C@@H]1CN(C)CCN1c1ncc(Cl)c(N2CC(C(=O)NC(C)(C)c3cnc4ccccn34)C2)n1 [Example 68]    32
O=C(NCc1cnc2ccccn12)C1CN(c2nc(N3CCCNCC3)ncc2F)C1 [Example 6]    130
Cc1ccc2ncc(C(C)(C)NC(=O)C3CN(c4nc(N5CCN(C)[C@H](C)C5)ncc4F)C3)n2c1 [Example 97]    4.9
CC(C)N1CCN(c2ncc(Cl)c(N3CC(C(=O)NC(C)(C)c4cnc5ccccn45)C3)n2)CC1 [Example 71]    11
CC(NC(=O)C1CN(c2nc(N3CCCNCC3)ncc2Cl)C1)c1cnc2ccccn12 (centres unmarked) [Example 10]    6.3
Cc1ccc2ncc(C(C)(C)NC(=O)C3CN(c4nc(N5CCN(C)CC5)ncc4F)C3)n2c1 [Example 60]    110

====

Test system: Plasmodium falciparum 3D7
Assay: SYBR Green assay, Plasmodium falciparum strain 3D7
Assay type: cell-based
Conditions: P. falciparum strain 3D7, 96 h incubation, read-out: Pf EC50 strain 3D7
pEC50: −log10 of the molar value.
measured.quantity: pEC50

COc1cnc(N2CCCNCC2)nc1N1CC(C(=O)NC(C)(C)c2cnc3ccccn23)C1    6.82
CN1CCN(c2ncc(Cl)c(N3CC(C(=O)N(C)C(C)(C)c4cnc5ccccn45)C3)n2)CC1    6.09
C[C@@H]1CN(c2ncc(F)c(N3CC(C(=O)NC(C)(C)c4cnc5ccccn45)C3)n2)C[C@H](C)N1    6.27
C[C@@H]1CN(c2cc(N3CC(C(=O)NC(C)(C)c4cnc5ccccn45)C3)c(Cl)cn2)CCN1C    8.28
Cc1ccc2ncc(C(C)(C)NC(=O)C3CN(c4nc(N5CCN(C)[C@H](C)C5)ncc4F)C3)n2c1    7.16
C[C@H]1CN(C)CCN1c1ncc(Cl)c(N2CC(C(=O)NC(C)(C)c3cnc4ccccn34)C2)n1    8.62
C[C@@H]1CN(c2ncc(Cl)c(N3CC(C(=O)NC(C)(C)c4cnc5ccccn45)C3)n2)C[C@H](C)N1    6.96

====

Reported IC50 is given for each of the following compounds.
Target: Plasmodium vivax (Pv) NMT (Plasmodium vivax (strain Salvador I), UniProt A5K1A2)
Test: biochemical
measured.quantity: IC50 (nM)

Cc1nc2ccccn2c1CNC(=O)C1CN(c2nc(N3CCCNCC3)ncc2Cl)C1    8.8
COc1cnc(N2CCN(C)CC2)nc1N1CC(C(=O)NC(C)(C)c2cnc3ccccn23)C1    71
COc1cnc(N2CCN(C)[C@@H](C)C2)nc1N1CC(C(=O)NC(C)(C)c2cnc3ccccn23)C1    8
CC(C)(NC(=O)C1CN(c2nc(N3CCCNCC3)ncc2Cl)C1)c1cnc2ccccn12    5.3

====

Tested on: Plasmodium falciparum 3D7
Test: SYBR Green assay, Plasmodium falciparum strain 3D7
Type: cell-based
Details: P. falciparum strain 3D7, 96 h incubation, read-out: Pf EC50 strain 3D7
Mark true only for EC50 values smaller than 70 nM; exact matches and larger values are false.

COc1cnc(N2CCN(C)[C@@H](C)C2)nc1N1CC(C(=O)NC(C)(C)c2cnc3ccccn23)C1 [Example 85]    true
CC1CN(c2ncc(F)c(N3CC(C(=O)NC(C)(C)c4cnc5ccccn45)C3)n2)C[C@H](C)N1 (stereo partly shown) [Example 49]    true
CN1CCN(c2ncc(F)c(N3CCC(C(=O)NC(C)(C)c4cnc5ccccn45)C3)n2)CC1 (stereo not shown) [Example 64]    false
C[C@H]1CN(c2ncc(F)c(N3CC(C(=O)NC(C)(C)c4cnc5ccccn45)C3)n2)CCN1 [Example 38]    false
CN1CCN(c2cc(N3CC(C(=O)NC(C)(C)c4cnc5ccccn45)C3)c(F)cn2)CC1 [Example 4]    false
C[C@@H]1CN(c2ncc(Cl)c(N3CC(C(=O)NC(C)(C)c4cnc5ccccn45)C3)n2)C[C@@H](C)N1C [Example 92]    false
C[C@@H]1CN(C)CCN1c1ncc(Cl)c(N2CC(C(=O)NC(C)(C)c3cnc4ccccn34)C2)n1 [Example 68]    false

====

Assay: in vitro
Conditions: male, Sprague-Dawley, rat, pooled cryopreserved rat hepatocytes, pH 7.4
measured.quantity: half-life at 1 µM

C[C@@H]1CN(c2ncc(Cl)c(N3CC(C(=O)NC(C)(C)c4cnc5ccccn45)C3)n2)C[C@H](C)N1 [Example 43]    > 180 min
O=C(NCc1cnc2ccccn12)C1CN(c2nc(N3CCNCC3)ncc2F)C1 [Example 16]    > 375 min
CCN1CCN(c2ncc(Cl)c(N3CC(C(=O)NC(C)(C)c4cnc5ccccn45)C3)n2)CC1 [Example 70]    > 180 min
COc1cnc(N2C[C@@H](C)N(C)[C@@H](C)C2)nc1N1CC(C(=O)NC(C)(C)c2cnc3ccccn23)C1 [Example 88]    > 180 min
CC(NC(=O)C1CN(c2nc(N3CCCNCC3)ncc2Cl)C1)c1cnc2ccccn12 (centres unmarked) [Example 10]    122 min

====

Experiment: Rat clearance and bioavailability (iv and oral dosing)
Format: in vivo
Conditions: male, Sprague-Dawley, plasma, oral 10 mg/kg, administered as a single compound
measured.quantity: bioavailability (%)

CC1CN(c2ncc(Cl)c(N3CC(C(=O)N(C)C(C)(C)c4cnc5ccccn45)C3)n2)CCN1C (centres unmarked) [Example 74]    28
C[C@H]1CN(C)CCN1c1ncc(Cl)c(N2CC(C(=O)NC(C)(C)c3cnc4ccccn34)C2)n1 [Example 2]    28

====

Test system: SU-DHL-10 cells
Experiment: Cell cytotoxicity in SU-DHL-10 cell line (CellTiter-Glo)
Type: cell-based
Settings: Homo sapiens, SU-DHL10; CellTiter-Glo, 48 h; read-out: SU-DHL-10 EC50
Mark T only for EC50 values smaller than 50 nM; exact matches and larger values are F.

Cc1nc(N2CCCN(C)CC2)nc(N2CC(C(=O)NC(C)(C)c3cnc4ccccn34)C2)c1Cl [Example 115]    F
CN(C(=O)C1CN(c2nc(N3CCNCC34CC4)ncc2Cl)C1)C(C)(C)c1cnc2ccccn12 [Example 150]    F
CC(C)(NC(=O)C1CN(c2nc(N3CCNCC3)ncc2Cl)C1)c1cnc2ccccn12 [Example 33]    F
CN1CCCN(c2ncc(Cl)c(N3CC(C(=O)N(C)C(C)(C)c4cnc5ccccn45)C3)n2)CC1 [Example 121]    T
C[C@@H]1CN(C)CCN1c1ncc(Cl)c(N2CC(C(=O)N(C)C(C)(C)c3cnc4ccccn34)C2)n1 [Example 142]    F
CN(C(=O)C1CN(c2nc(N3CC4CCC(C3)N4)ncc2Cl)C1)C(C)(C)c1cnc2ccccn12 [Example 133]    F
C[C@H]1CNCCN1c1nc(N2CC(C(=O)NC(C)(C)c3cnc4ccccn34)C2)c2sccc2n1 [Example 126]    F
CC[C@H]1CNCCN1c1ncc(Cl)c(N2CC(C(=O)NC(C)(C)c3cnc4ccccn34)C2)n1 [Example 147]    T
CN(C(=O)C1CN(c2nc(N3CCNCC3(C)C)ncc2Cl)C1)C(C)(C)c1cnc2ccccn12 [Example 149]    F
C[C@@H]1CN(c2ncc(Cl)c(N3CC(C(=O)NC(C)(C)c4cnc5ccccn45)C3)n2)[C@@H](C)CN1 [Example 153]    F
C[C@H]1CN(c2ncc(Cl)c(N3CC(C(=O)NC(C)(C)c4cnc5ccccn45)C3)n2)[C@@H](C)CN1 [Example 151]    T
CN(C(=O)C1CN(c2nc(N3CCCNCC3)ncc2Cl)C1)C(C)(C)c1cnc2ccccn12 [Example 120]    F
CN1CCCN(c2nc(N3CC(C(=O)NC(C)(C)c4cnc5ccccn45)C3)c3ccsc3n2)CC1 [Example 113]    T
CCN(C(=O)C1CN(c2nc(N3CCNC[C@@H]3C)ncc2Cl)C1)C(C)(C)c1cnc2ccccn12 [Example 145]    T
